assay: Oral bioavailability in Sprague-Dawley rat at 25 mg/kg measured up to 24 hrs by HPLC analysis; type: ADME, organism-based; settings: in vivo
experimental endpoint: bioavailability (%)

>>> reported_measurement("O=C(CNc1nc(N2CCCC2)nc2ccccc12)Nc1ccc2ccccc2c1")
22.5

###

experiment: Mean residence time in Sprague-Dawley rat at 25 mg/kg, po measured up to 24 hrs by HPLC analysis; assay type: ADME, organism-based; conditions: in vivo
experimental endpoint: MRT (h)

>>> reported_measurement("O=C(CNc1nc(N2CCCC2)nc2ccccc12)Nc1ccc2ccccc2c1")
3.18

###

Readings of CC50 at 48 h for the listed compounds
experiment: Cytotoxicity against human HEK293T cells assessed as reduction in cell viability after 48 hrs by CCK8 assay; type: cell-based, HEK-293T
experimental endpoint: CC50 at 48 h (µM)

>>> reported_measurement("O=C(CNc1nc(N2CCCC2)nc2ccccc12)Nc1cc(Cl)cc(Cl)c1")
15.9
>>> reported_measurement("O=C(CNc1nc(N2CCc3ccccc3C2)nc2ccccc12)NCc1ccccc1")
29.4

###

test: Cytotoxicity against human A549 cells assessed as reduction in cell viability after 48 hrs by CCK8 assay; format: cell-based
experimental endpoint: log10 CC50 at 48 h (log10 of the value in µM)

>>> reported_measurement("O=C(CNc1nc(N2CCc3ccccc3C2)nc2ccccc12)NCc1ccccc1")
1.11
>>> reported_measurement("O=C(CNc1nc(N2CCCC2)nc2ccccc12)Nc1ccc2ccccc2c1")
0.68
>>> reported_measurement("CCOc1ccc(NC(=O)CSc2c[nH]c3ccc(Br)cc23)cc1")
1.85
>>> reported_measurement("O=C(CNc1nc(N2CCc3ccccc3C2)nc2ccccc12)Nc1ccccc1")
1.03
>>> reported_measurement("O=C(CNc1nc(N2CCCC2)nc2ccccc12)Nc1cc(Cl)cc(Cl)c1")
0.77
>>> reported_measurement("O=C(CNc1nc(N2CCCC2)nc2ccccc12)Nc1ccccc1")
1.28

###

experiment: Tmax in Sprague-Dawley rat at 25 mg/kg, po measured up to 24 hrs by HPLC analysis; format: ADME, organism-based; details: in vivo
experimental endpoint: Tmax (min)

>>> reported_measurement("O=C(CNc1nc(N2CCCC2)nc2ccccc12)Nc1ccc2ccccc2c1")
19.8

###

experiment: Selectivity index, ratio of CC50 for human HEK293T cells to IC50 for Influenza A virus A/WSN/33(H1N1) infected in HEK293T-Gluc cells; assay type: toxicity, cell-based; settings: read-out: Ratio CC50/IC50
experimental endpoint: selectivity ratio

>>> reported_measurement("CCN(CC)c1nc(SCC(=O)NCc2ccccc2)c2ccccc2n1")
"> 5.22"
>>> reported_measurement("O=C(CSc1nc(N2CCCC2)nc2ccccc12)NC1CC1")
"> 2.61"
>>> reported_measurement("O=C(COc1cccc2ccccc12)Nc1ccc(F)cc1")
"> 19.1"

###

test system: Influenza A virus; assay: Antiviral activity against Influenza A virus A/WSN/33(H1N1) infected in HEK293T-Gluc cells pretreated for 2 hrs followed by viral infection and measured after 24 hrs by Gaussia luciferase reporter gene assay; assay type: functional, organism-based; conditions: A/WSN/1933(H1N1), HEK-293T
experimental endpoint: IC50 (µM)

>>> reported_measurement("O=C(CNc1nc(N2CCCC2)nc2ccccc12)Nc1cc(Cl)cc(Cl)c1")
9.04
>>> reported_measurement("CCN(CC)c1nc(NCC(=O)NCc2ccccc2)c2ccccc2n1")
5
>>> reported_measurement("CCN(CC)c1nc(SCC(=O)NCc2ccccc2)c2ccccc2n1")
19.2
>>> reported_measurement("O=C(CNc1nc(N2CCc3ccccc3C2)nc2ccccc12)NCc1ccccc1")
6.84

###

experiment: Cytotoxicity against human HEK293T cells assessed as reduction in cell viability after 48 hrs by CCK8 assay; type: cell-based, HEK-293T
Consider the following compounds and their measured CC50 at 48 h readings.
experimental endpoint: CC50 at 48 h

>>> reported_measurement("NC(=O)c1ncn([C@@H]2O[C@H](CO)[C@@H](O)[C@H]2O)n1")
"> 100 µM"
>>> reported_measurement("CN1CCN(c2nc(NCC(=O)NCc3ccccc3)c3ccccc3n2)CC1")
"> 100 µM"
>>> reported_measurement("O=C(CNc1nc(N2CCCC2)nc2ccccc12)NCc1ccco1")
"> 100 µM"

###

Recorded CC50 at 48 h by entry
assay: Cytotoxicity against human A549 cells assessed as reduction in cell viability after 48 hrs by CCK8 assay; assay type: cell-based
experimental endpoint: CC50 at 48 h

>>> reported_measurement("CCN(CC)c1nc(NCC(=O)NCc2ccccc2)c2ccccc2n1")
"> 100 µM"
>>> reported_measurement("CCN(CC)c1nc(SCC(=O)Nc2ccccc2)c2ccccc2n1")
"> 100 µM"
>>> reported_measurement("O=C(CNc1nc(N2CCOCC2)nc2ccccc12)NCc1ccccc1")
"> 100 µM"
